List of ddG of mutation (higher = less stable) values.
B1: Lysozyme C, P61626 (parent)
chain: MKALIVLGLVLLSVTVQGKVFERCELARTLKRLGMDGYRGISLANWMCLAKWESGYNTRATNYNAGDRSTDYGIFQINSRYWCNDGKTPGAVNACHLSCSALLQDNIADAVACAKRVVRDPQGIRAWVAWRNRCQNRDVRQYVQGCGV

- Variants of: B1
- TEST_CONDITIONS: Homo sapiens; pH 2.7; 64.9 °C; Thermal; DSC; glycine-HCl 0.05 M; reversible: yes; structure 1LZ1; whole UniProt chain shown

Guide cases for ddG of mutation (higher = less stable), answers given:
> print(dat)
   variant.designation  reported.value
1                 V92I  -0.45 kcal/mol
2                 V20F   0.86 kcal/mol
3                 V20M   0.31 kcal/mol
4                 V92G   0.22 kcal/mol
5                 V92L  -0.19 kcal/mol

Item under review: V20G . Reported ddG of mutation (higher = less stable)?
2.29 kcal/mol

Item under review: V20I . Reported ddG of mutation (higher = less stable)?
-1.1 kcal/mol

Item under review: V92M . Reported ddG of mutation (higher = less stable)?
-0.65 kcal/mol

Item under review: V128I . Reported ddG of mutation (higher = less stable)?
-0.86 kcal/mol

Item under review: V92F . Reported ddG of mutation (higher = less stable)?
0.29 kcal/mol

Item under review: V20L . Reported ddG of mutation (higher = less stable)?
0.05 kcal/mol

Item under review: V128L . Reported ddG of mutation (higher = less stable)?
-0.07 kcal/mol

Item under review: V128G . Reported ddG of mutation (higher = less stable)?
-0.48 kcal/mol

Item under review: V128F . Reported ddG of mutation (higher = less stable)?
0.05 kcal/mol
